Origin of values: PubChem BioAssay AID1963844

tested on: 422866-222-R5-J1-PDC complex spheroid viability; assay: Anticancer human tumor 422866-222-R5-J1-PDC patient-derived pancreatic adenocarcinoma cell line growth inhibition [POLQ]; settings: second compound 10 µM; first compound 0.1 µM; stronger effect = lower value;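 also: spheroids exposed to compounds for one week before readout; percent of DMSO vehicle wells luminescence so 100% = untreated viability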
Threshold 80%. viability, T/C below it: 1 (yes). viability, T/C at it or above: 0 (no).

Is the reported viability, T/C for CCc1c2c(nc3ccc(O)cc13)-c1cc3c(c(=O)n1C2)COC(=O)[C@]3(O)CC + COC1C(OC(N)=O)C(O)C(Oc2ccc3c(O)c(NC(=O)c4ccc(O)c(CC=C(C)C)c4)c(=O)oc3c2C)OC1(C)C strictly below 80%?
1 (yes)

Check if viability, T/C falls below 80% for C=CCn1c(=O)c2cnc(Nc3ccc(N4CCN(C)CC4)cc3)nc2n1-c1cccc(C(C)(C)O)n1 + Cc1cccc(N(C)C(=O)C2C(O)CCN2c2nc(C)cc(C(F)(F)F)c2C#N)c1 .
1 (yes)

Pending compound:
Check if viability, T/C falls below 80% for C#Cc1c(F)ccc2cc(O)cc(-c3ncc4c(N5CC6CCC(C5)N6)nc(OCC56CCCN5CC(F)C6)nc4c3F)c12 (stereo unspecified) + Cc1cccc(N(C)C(=O)C2C(O)CCN2c2nc(C)cc(C(F)(F)F)c2C#N)c1 .
1 (yes)
